Hello, the source for this data is patent US7820714B2, in case you need it.

# EXPERIMENTAL_SYSTEM: Siglec-4a (MAG) (UniProt P20917)
# Sequence (P20917 1-627): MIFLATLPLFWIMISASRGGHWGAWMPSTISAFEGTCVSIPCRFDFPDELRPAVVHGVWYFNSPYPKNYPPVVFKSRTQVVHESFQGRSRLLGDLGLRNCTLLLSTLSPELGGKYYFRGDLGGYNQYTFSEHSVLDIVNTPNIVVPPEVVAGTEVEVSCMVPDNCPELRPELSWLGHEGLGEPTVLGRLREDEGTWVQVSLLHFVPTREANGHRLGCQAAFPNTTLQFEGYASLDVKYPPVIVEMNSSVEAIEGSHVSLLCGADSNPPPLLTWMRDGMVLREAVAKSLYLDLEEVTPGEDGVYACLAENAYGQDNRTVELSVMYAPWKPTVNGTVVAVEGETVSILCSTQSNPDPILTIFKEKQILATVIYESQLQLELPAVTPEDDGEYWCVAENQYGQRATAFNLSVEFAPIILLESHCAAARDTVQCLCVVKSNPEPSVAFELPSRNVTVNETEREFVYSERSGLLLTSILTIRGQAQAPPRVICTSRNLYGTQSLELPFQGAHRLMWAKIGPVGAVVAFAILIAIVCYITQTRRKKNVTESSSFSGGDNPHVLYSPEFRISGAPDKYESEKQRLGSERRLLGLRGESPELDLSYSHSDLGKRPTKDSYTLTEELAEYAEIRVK
# PROTOCOL_TEXT: Hapten inhibition assay, Siglec-4a (MAG)
# CONDITIONS: read-out: Siglec-4a (MAG) IC50; unit inferred
MEASUREMENT_LABEL: IC50 (µM)
Numbers only, in µM.

Give the value of IC50 reported for the following: CO[C@]1(C(=O)O)C[C@H](O)[C@@H](NC(C)=O)[C@H]([C@H](O)[C@H](O)CNC(=O)CN)O1 [Methyl-α-9-N-aminoacetyl-9-desoxy-Neu5Ac]
3400

// each molecule listed below needs its IC50
1. COc1ccc(C(=O)NC[C@@H](O)[C@@H](O)[C@@H]2O[C@@](OC)(C(=O)O)C[C@H](O)[C@H]2NC(C)=O)cc1
2. CO[C@]1(C(=O)O)CC(O)[C@@H](NC(C)=O)C([C@@H](O)[C@H](O)CNC(=O)c2ccc(-c3ccccc3)cc2)O1 (stereo partly drawn)

[12, 22]

// each molecule listed below needs its IC50
1. CCCCCC(=O)NCC(O)C(O)C1OC(OC)(C(=O)O)CC(O)C1NC(C)=O (stereo not drawn)
2. CS[C@]1(C(=O)O)C[C@H](O)[C@@H](NC(C)=O)[C@H]([C@H](O)[C@H](O)CO)O1 [Methylthio-α-Neu5Ac]
3. CCC(=O)NC1C(O)CC(OCc2ccccc2)(C(=O)O)OC1C(O)C(O)CO (stereo not drawn) [Benzyl-α-5-N-propanoyl-neuraminic acid]

[198, 2780, 2500]

// each molecule listed below needs its IC50
1. CO[C@]1(C(=O)O)C[C@H](O)[C@@H](NC(C)=O)[C@H]([C@H](O)[C@H](O)CNC(=O)c2cc(O)cc(O)c2)O1
2. CO[C@]1(C(=O)O)C[C@H](O)[C@@H](NC(C)=O)[C@H]([C@H](O)[C@H](O)CNC(=O)C(c2ccccc2)c2ccccc2)O1
3. CCOc1c(NC[C@@H](O)[C@@H](O)[C@@H]2O[C@@](OC)(C(=O)O)C[C@H](O)[C@H]2NC(C)=O)c(=O)c1=O

[28, 150, 240]
